- method: in vitro
- conditionDescription: human, liver microsomes
- Description: Metabolic stability in human liver microsomes assessed as half life at 10 uM in presence of NADPH by HPLC-MS/MS analysis
propertyMeasured: log10(half-life at 10 µM) (log10 of the value in min)

# molecule, propertyMeasured, resultNumber
records = [
    ("CCc1ccc(N(CC2CC2)S(=O)(=O)c2ccc3c(c2)C(=O)CC(C2CCOCC2)O3)cc1 (stereo not given)", "log10(half-life at 10 µM)", 1.35),
    ("Cc1ccc(N(C2CCC2)S(=O)(=O)c2ccc3c(c2)C(=O)CC(C2CCOCC2)O3)c(C)c1 (stereo not given)", "log10(half-life at 10 µM)", 0.79),
    ("CC(C)CN(c1ccc(N(C)C)cc1)S(=O)(=O)c1ccc2c(c1)C(=O)CC(C1CCOCC1)O2 (stereo not given)", "log10(half-life at 10 µM)", 1.11),
    ("CC(C)CN(c1ccc(F)cc1)S(=O)(=O)c1ccc2c(c1)C(=O)CC(C1CCOCC1)O2 (stereo not given)", "log10(half-life at 10 µM)", -0.15),
    ("Cc1nc(N2CCOCC2)ccc1N(CC(C)C)S(=O)(=O)c1ccc2c(c1)C(=O)CC(C1CCOCC1)O2 (stereo not given)", "log10(half-life at 10 µM)", 1.77),
]
